test system: Neisseria meningitides (ATCC 13077); assay: Disc diffusion assay; format: cell-based; details: ATCC13077, 4 μg per disc, read-out: Zone of inhibition N.m.
Structures can show the parent of a compound that is named as a salt.
Threshold rule: zone of inhibition at 4 µg/disc greater than or equal to 10 mm is criterion met; below that, criterion not met.

INSERT INTO assay_data (compound, cat) VALUES
  ('CN[C@@H]1[C@H](O)[C@H](NC)[C@H]2O[C@]3(O)[C@H](O[C@@H]2[C@H]1O)O[C@H](C)C[C@@]3(O)CNCC(C)c1ccccc1 (stereo partly drawn)', 'criterion met'),
  ('CN[C@@H]1[C@H](O)[C@H](NC)[C@H]2O[C@]3(O)[C@H](O[C@@H]2[C@H]1O)O[C@H](C)C[C@@]3(O)CNCCc1ccccc1 [compound 6, Trihydrochloride]', 'criterion met'),
  ('CN[C@@H]1[C@H](O)[C@H](NC)[C@H]2O[C@]3(O)[C@H](O[C@@H]2[C@H]1O)O[C@H](C)C[C@@]3(O)CNCCc1ccc(C)c(C)c1 [compound 55, Trihydrochloride]', 'criterion not met'),
  ('CN[C@@H]1[C@H](O)[C@H](NC)[C@H]2O[C@]3(O)[C@H](O[C@@H]2[C@H]1O)O[C@H](C)C[C@@]3(O)CNCc1ccccc1OC(F)(F)F [compound 10, Trihydrochloride]', 'criterion not met'),
  ('CN[C@@H]1[C@H](O)[C@H](NC)[C@H]2O[C@]3(O)[C@H](O[C@@H]2[C@H]1O)O[C@H](C)C[C@@]3(O)CNCc1cccs1 [compound 17, Trihydrochloride]', 'criterion met'),
  ('CN[C@@H]1[C@H](O)[C@H](NC)[C@H]2O[C@]3(O)[C@H](O[C@@H]2[C@H]1O)O[C@H](C)C[C@]3(O)CNCc1ccc(F)cc1 [compound 28, Trihydrochloride]', 'criterion not met');

* * *

Structures can show the parent of a compound that is named as a salt.
For reference, MIC measured on Proteus vulgaris (ATCC 33420):
endpoint.label: MIC

INSERT INTO measurements (compound, endpoint_label, endpoint_result) VALUES
  ('CN[C@@H]1[C@H](O)[C@H](NC)[C@H]2O[C@]3(O)[C@H](O[C@@H]2[C@H]1O)O[C@H](C)C[C@@]3(O)CNCc1ccc(S(C)(=O)=O)cc1 [compound 69, trihydrobromide]', 'MIC', '> 200 µg/mL'),
  ('CN[C@@H]1[C@H](O)[C@H](NC)[C@H]2O[C@]3(O)[C@H](O[C@@H]2[C@H]1O)O[C@H](C)C[C@@]3(O)CNCc1cccc(C)n1', 'MIC', '> 200 µg/mL'),
  ('CN[C@@H]1[C@H](O)[C@H](NC)[C@H]2O[C@]3(O)[C@H](O[C@@H]2[C@H]1O)O[C@H](C)C[C@@]3(O)CNCc1cccs1 [compound 17, Trihydrochloride]', 'MIC', '200 µg/mL'),
  ('CN[C@@H]1[C@H](O)[C@H](NC)[C@H]2O[C@]3(O)[C@H](O[C@@H]2[C@H]1O)O[C@H](C)C[C@@]3(O)CNc1ccc(F)cc1 [compound 31, Trihydrochloride]', 'MIC', '> 200 µg/mL'),
  ('CN[C@@H]1[C@H](O)[C@H](NC)[C@H]2O[C@]3(O)[C@H](O[C@@H]2[C@H]1O)O[C@H](C)C[C@@]3(O)CNCc1ccc(F)c(F)c1 [compound 12, Trihydrochloride]', 'MIC', '> 200 µg/mL');

* * *

test system: Bacillus anthracis, Sterne 34F2; test: microbe, parasite or virus in culture; format: cell-based; conditions: STERNE34F2, read-out: MIC B.a.
Counter-ions that a name gives are not always drawn.
endpoint.label: MIC

INSERT INTO measurements (compound, endpoint_label, endpoint_result) VALUES
  ('CN[C@@H]1[C@H](O)[C@H](NC)[C@H]2O[C@]3(O)[C@H](O[C@@H]2[C@H]1O)O[C@H](C)C[C@@]3(O)CNCc1nc2ccccc2s1 [compound 34, Trihydrobromide]', 'MIC', '50 µg/mL'),
  ('CN[C@@H]1[C@H](O)[C@H](NC)[C@H]2O[C@]3(O)[C@H](O[C@@H]2[C@H]1O)O[C@H](C)C[C@@]3(O)CNCc1cnc[nH]1', 'MIC', '50 to 100 µg/mL'),
  ('CN[C@@H]1[C@H](O)[C@H](NC)[C@H]2O[C@]3(O)[C@H](O[C@@H]2[C@H]1O)O[C@H](C)C[C@]3(O)CNCc1ccc(F)cc1 [compound 28, Trihydrochloride]', 'MIC', '> 200 µg/mL'),
  ('CN[C@@H]1[C@H](O)[C@H](NC)C2O[C@]3(O)C(OC2[C@H]1O)O[C@H](C)C[C@@]3(O)CNCc1ccc2c(c1)OCO2 (some centres unmarked)', 'MIC', '> 200 µg/mL'),
  ('CN[C@@H]1[C@H](O)[C@H](NC)[C@H]2O[C@]3(O)[C@H](O[C@@H]2[C@H]1O)O[C@H](C)C[C@@]3(O)CNCCc1ccccc1 [compound 6, Trihydrochloride]', 'MIC', '6.3 to 12.5 µg/mL');

* * *

test system: Enterococcus faecalis (ATCC 33186); test: MIC determination, microbroth dilution; format: cell-based; details: ATCC33186; Enterococcus faecalis (ATCC 33186); read-out: MIC E.f.
Structures can show the parent of a compound that is named as a salt.
endpoint.label: MIC

INSERT INTO measurements (compound, endpoint_result) VALUES
  ('CN[C@@H]1[C@H](O)[C@H](NC)[C@H]2O[C@]3(O)[C@H](O[C@@H]2[C@H]1O)O[C@H](C)C[C@]3(O)CNCCc1ccccc1 [compound 27, Trihydrochloride]', '> 200 µg/mL'),
  ('CN[C@@H]1[C@H](O)[C@H](NC)[C@H]2O[C@]3(O)[C@H](O[C@@H]2[C@H]1O)O[C@H](C)C[C@@]3(O)CNCc1cccc(OC(F)(F)F)c1 [compound 25, Trihydrochloride]', '12.5 to 25 µg/mL'),
  ('CN[C@@H]1[C@H](O)[C@H](NC)[C@H]2O[C@]3(O)[C@H](O[C@@H]2[C@H]1O)O[C@H](C)C[C@@]3(O)CNCc1ccc(C(F)(F)F)cc1 [compound 5, Trihydrochloride]', '12.5 to 25 µg/mL'),
  ('CN[C@@H]1[C@H](O)[C@H](NC)[C@H]2O[C@]3(O)[C@H](O[C@@H]2[C@H]1O)O[C@H](C)C[C@]3(O)CNCc1ccc(F)cc1 [compound 28, Trihydrochloride]', '> 200 µg/mL'),
  ('CN[C@@H]1[C@H](O)[C@H](NC)[C@H]2O[C@@]3(O)C(=O)C[C@@H](C)O[C@H]3O[C@@H]2[C@H]1O [SPC, reference compound]', '50 to 100 µg/mL');
